- Target entity: recombinant human MASP2 active protease (amino acids 297-686, C-terminal His Tag) (human, UniProt O00187 297-686)
- Sequence (O00187 other isoform, or with tags, fused parts or gaps limits assumed): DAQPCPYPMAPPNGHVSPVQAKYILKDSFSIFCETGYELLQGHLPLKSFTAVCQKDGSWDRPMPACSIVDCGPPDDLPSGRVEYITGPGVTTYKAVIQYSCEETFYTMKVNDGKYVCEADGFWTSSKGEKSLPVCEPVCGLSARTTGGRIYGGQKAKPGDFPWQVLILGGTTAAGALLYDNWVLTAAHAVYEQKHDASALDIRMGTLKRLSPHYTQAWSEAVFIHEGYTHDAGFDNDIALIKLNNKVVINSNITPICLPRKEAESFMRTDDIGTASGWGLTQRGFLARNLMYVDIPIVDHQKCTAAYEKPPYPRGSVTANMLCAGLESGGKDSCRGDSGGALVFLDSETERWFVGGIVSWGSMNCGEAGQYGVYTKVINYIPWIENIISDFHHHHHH
- Procedure details: cell-based or functional assay
Numbered stars: 1 amine (or outer) side, 2 acyl side, 3 side chain; on linkers, the order of the positions; unused ones are H or OH. Bridge positions count the residues as written; N and C are the ends. Square brackets hold non-standard residues; d marks the D form. Ends that are not written are not given here. X9 = (S)‑3‑(1-Pyrrolidine-2-yl)‑propionic acid, O=C(CC[C@@H]1CCCN1[*:1])[*:2]; Oic = O=C(O)[C@@H]1C[C@@H]2CCCC[C@@H]2N1; Pen = CC(C)(S)[C@H](N)C(=O)O; Sar = CNCC(=O)O
Quantity kind: human MASP2 IC50
I'd appreciate it if you included the unit after the number.

Entry [Sar]ICSRSLP[Oic]I[Pen]IP[X9]-OH (disulfide 3-11; N-terminus assumed; SMILES CC[C@H](C)[C@H](NC(=O)CNC)C(=O)N[C@H]1CSSC(C)(C)[C@@H](C(=O)N[C@H](C(=O)N2CCC[C@H]2C(=O)N2CCC[C@H]2CCC(=O)O)[C@@H](C)CC)NC(=O)[C@H]([C@@H](C)CC)NC(=O)[C@@H]2C[C@@H]3CCCC[C@@H]3N2C(=O)[C@@H]2CCCN2C(=O)[C@H](CC(C)C)NC(=O)[C@H](CO)NC(=O)[C@H](CCCNC(=N)N)NC(=O)[C@H](CO)NC1=O) [Example 453: ((N-Me)G)-IC+SRSLP-(Oic)-I-(Pen)+IP-((S)-3-(1-Pyrrolidine-2-yl)-propionic acid)-OH] : reported human MASP2 IC50 = ?
56 nM
